# Protocol: Human HepG2 cell viability assay in 384 well format
# Assay type: toxicity, cell-based
# Set-up: dose 125 nL, time 70.5 hour; concentration not given beside the values
# Condition set: HepG2 cells, read-out: Inhibition
This section presents molecules with their documented cytotoxicity at 70.5 h values.
Please give a number only; it is taken to be in %.

Sample records with cytotoxicity at 70.5 h:
INSERT INTO assay_data (molecule, quantity_measured, data_value) VALUES
  ('Cc1cc(N[C@H](CO)c2ccccc2)n2nc(C)cc2n1', 'cytotoxicity at 70.5 h', -1.18),
  ('CC(C)N1CCC(N(C)c2ccnc(N(C)C)n2)CC1', 'cytotoxicity at 70.5 h', -2.26),
  ('O=C(CN1CCc2ccccc2C1)NCc1ccco1', 'cytotoxicity at 70.5 h', 3.48),
  ('CC(C(=O)Nc1ccnn1C(C)C)N1CCN(Cc2ccccc2)CC1 (stereo unspecified)', 'cytotoxicity at 70.5 h', -7.81),
  ('CC(C)C(=O)N1CC[C@H]2N(C)CC[C@@]2(C(=O)Nc2cccnc2)CC1', 'cytotoxicity at 70.5 h', -10.9);

Exam item: Need cytotoxicity at 70.5 h of CN(C)C(C(=O)NCC1(C)COC1)c1cccc(F)c1 (stereo unspecified) , thanks.
Marked response: -3.06

Exam item: Entry O=C(CCc1nc(Cl)n[nH]1)NC1CCCN(C2Cc3ccccc3C2)C1 (stereo unspecified) please
Marked response: -9.23

Exam item: Entry Cc1nc(C)n(C2CCCN(C(=O)Cc3n[nH]c4ccccc34)C2)n1 (stereo unspecified) please
Marked response: 1.52

Exam item: Entry c1ccc(-c2nccc(N3CCc4c(ncn4C4CC4)C3)n2)cc1 please
Marked response: -17.8

Exam item: Entry COc1cc(C2(C(=O)N3CCCC(n4cncn4)C3)CC2)ccc1C (stereo unspecified) please
Marked response: -7.1

Exam item: Entry O=C(c1cc2c(s1)CCOC2)N1CCCC1Cn1cccn1 (stereo unspecified) please
Marked response: -8.49
